These data points were gathered from patent US4081434A.

tested on: guinea pig ileum; experiment: guinea pig ileum bioassay of Kosterlitz et al. (opiate agonist activity); type: cell-based; conditions: guinea pig ileum bioassay; βh and βc -endorphin = 1.00
Ends that are not written are not given here.
MEASURED_ENDPOINT: relative potency
Please state the value as a number alone, without comment.

Query :: Report value: relative potency, system: guinea pig ileum, substance: βc -endorphin-(20-31): fragment 20-31 of camel β-endorphin (NAIIKNAHKKGQ; Beta-endorphin; UniProt P01203 20-31, looked up, fragment)
Result :: 0.001

Query :: Report value: relative potency, system: guinea pig ileum, substance: YGGFMTSEKSQTPLVTLFKNAIIKNAHKKGQ [βc -endorphin]
Result :: 1.00

Query :: Report value: relative potency, system: guinea pig ileum, substance: βc -endorphin-(6-31): fragment 6-31 of camel β-endorphin (TSEKSQTPLVTLFKNAIIKNAHKKGQ; Beta-endorphin; UniProt P01203 6-31, looked up, fragment)
Result :: 0.04

Query :: Report value: relative potency, system: guinea pig ileum, substance: YGGFMTLFKNAIIKNAYKKGE [βh-endorphin-(1-5)-(16-31)]
Result :: 1.35
